# SUBJECT_OF_TEST: B-RAF V600E (Homo sapiens, UniProt P15056, V600E)
# Construct: expressed in transfected cells; host or cells: T-Rex 293 cells (Invitrogen #R71007)
# Sequence (P15056 whole entry V600E): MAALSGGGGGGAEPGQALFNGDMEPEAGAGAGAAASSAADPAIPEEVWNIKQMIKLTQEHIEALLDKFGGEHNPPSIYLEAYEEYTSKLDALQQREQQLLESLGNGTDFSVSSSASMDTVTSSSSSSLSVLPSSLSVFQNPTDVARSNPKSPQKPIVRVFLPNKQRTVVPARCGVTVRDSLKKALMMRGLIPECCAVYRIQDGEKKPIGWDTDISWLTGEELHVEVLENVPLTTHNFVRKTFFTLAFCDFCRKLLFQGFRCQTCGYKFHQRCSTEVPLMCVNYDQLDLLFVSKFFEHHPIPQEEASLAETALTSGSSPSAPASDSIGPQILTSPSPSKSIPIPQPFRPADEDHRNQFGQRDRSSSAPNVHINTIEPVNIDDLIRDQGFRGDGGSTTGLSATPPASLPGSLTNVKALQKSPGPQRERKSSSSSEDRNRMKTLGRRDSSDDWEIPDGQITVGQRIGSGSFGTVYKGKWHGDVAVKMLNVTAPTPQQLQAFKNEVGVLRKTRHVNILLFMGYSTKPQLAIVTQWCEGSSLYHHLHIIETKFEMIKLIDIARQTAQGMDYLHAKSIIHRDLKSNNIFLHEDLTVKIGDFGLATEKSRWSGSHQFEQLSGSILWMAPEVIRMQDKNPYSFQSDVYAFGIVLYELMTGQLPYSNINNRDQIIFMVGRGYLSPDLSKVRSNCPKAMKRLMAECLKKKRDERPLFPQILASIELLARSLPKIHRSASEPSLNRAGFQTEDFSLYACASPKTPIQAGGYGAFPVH
# PROCEDURE_SUMMARY: Target protein degradation, assay C: T-Rex 293 cells, HA-BRAF_V600E, 384 well format
# Format: cell-based
# CONDITION: Assay C, T-Rex 293 HA-BRAF_V600E cells, 24 hours, Examples 83-269
Quick reference for DC50 among some molecules

Solved cases (5 shown):
MOLECULE	DC50
N#Cc1c(NS(=O)(=O)N2CC[C@@H](F)C2)ccc(F)c1Oc1ccc2ncn(-c3ccc(N4CCC(CN5CC6(C5)CN(c5ccc7c(c5)C(=O)N(C5CCC(=O)NC5=O)C7=O)C6)CC4)nc3)c(=O)c2c1 (stereo partly shown)	50 to 500 nM
N#Cc1c(NS(=O)(=O)N2CC[C@@H](F)C2)ccc(F)c1Oc1ccc2ncn(-c3ccc(N4CCC(CN5CC6(CC(c7ccc8c(c7)C(=O)N(C7CCC(=O)NC7=O)C8=O)C6)C5)CC4)cc3)c(=O)c2c1 (stereo partly shown)	> 500 nM
N#Cc1c(NS(=O)(=O)N2CC[C@@H](F)C2)ccc(F)c1Oc1ccc2ncn(-c3ccc(N4CCN(CCN5CCN(c6ccc(C7CCC(=O)NC7=O)cc6F)CC5)CC4)cc3)c(=O)c2c1 (stereo partly shown)	50 to 500 nM
N#Cc1c(NS(=O)(=O)N2CC[C@@H](F)C2)ccc(F)c1Oc1ccc2ncn(-c3ccc(N4CCC5(CC4)CN(CC4CCN(c6ccc7c(c6)CN([C@H]6CCC(=O)NC6=O)C7=O)CC4)C5)cc3)c(=O)c2c1	50 to 500 nM
N#Cc1c(NS(=O)(=O)N2CC[C@@H](F)C2)ccc(F)c1Oc1ccc2ncn(-c3cccc(N4CCN(CC5CCN(c6ccc7c(c6)CN(C6CCC(=O)NC6=O)C7=O)CC5)CC4)c3)c(=O)c2c1 (stereo partly shown)	50 to 500 nM

## Task Need DC50, item N#Cc1c(NS(=O)(=O)N2CC[C@@H](F)C2)ccc(F)c1Oc1ccc2ncn(-c3ccc(N4CCN(CC5CCN(c6ccc7c(c6)CN([C@@H]6CCC(=O)NC6=O)C7=O)CC5)CC4)cc3)c(=O)c2c1
## Result 5 to 50 nM

## Task Need DC50, item CCN(C)S(=O)(=O)Nc1ccc(F)c(Oc2ccc3ncn(-c4ccc(N5CCN(CC6CCN(c7ccc(C8CCC(=O)NC8=O)cc7F)CC6)CC5)cc4)c(=O)c3c2)c1C#N (stereo not shown)
## Result 50 to 500 nM

## Task Need DC50, item N#Cc1c(NS(=O)(=O)N2CC[C@@H](F)C2)ccc(F)c1Oc1ccc2ncn(-c3ccc(N4CCN(CC5CCN(c6ccc(C7CCC(=O)NC7=O)nc6)CC5)CC4)cc3)c(=O)c2c1 (stereo partly shown)
## Result 5 to 50 nM

## Task Need DC50, item N#Cc1c(NS(=O)(=O)N2CC[C@@H](F)C2)ccc(F)c1Oc1ccc2ncn(-c3ccc(N4CC5(CC(CN6CCC(c7ccc8c(c7)CN(C7CCC(=O)NC7=O)C8=O)CC6)C5)C4)cc3)c(=O)c2c1 (stereo partly shown)
## Result 50 to 500 nM

## Task Need DC50, item N#Cc1c(NS(=O)(=O)N2CC[C@@H](F)C2)ccc(F)c1Oc1ccc2ncn(-c3ccc(N4CCC(CN5CCC6(CC5)CN(c5cccc7c5CN(C5CCC(=O)NC5=O)C7=O)C6)CC4)nc3)c(=O)c2c1 (stereo partly shown)
## Result 50 to 500 nM

----------
Quick reference for Dmax among some compounds
# SUBJECT_OF_TEST: B-RAF V600E (Homo sapiens, UniProt P15056, V600E)
# Construct: expressed in transfected cells; host or cells: T-Rex 293 cells (Invitrogen #R71007)
# PROCEDURE_SUMMARY: Target protein degradation, assay C: T-Rex 293 cells, HA-BRAF_V600E, 384 well format
# Assay type: cell-based
# CONDITION: T-REx-293, Assay C, T-Rex 293 HA-BRAF_V600E cells, 24 hours, Examples 83-269
# Experimental: C. T-Rex 293 Cells (384 Well Format) T-Rex 293 cells were purchased from Invitrogen (#R71007), and stably transfected with a pcDNA4/TO_HA-BRAF_V600E construct, using 400 ug Zeocin for selection. […] BRAF intensity is quantified in HCS Studio software (ThermoFisher), using a custom script, exported, analyzed using KNIME, and curve curation is performed in an ELN (Scilligence). Cell toxicity is measured via comparing number of nuclei in PROTAC treated wells to DMSO controls. […]

COMPOUND	Dmax
Cc1cc(N2CC(CN3CCN(c4ccc(-n5cnc6ccc(Oc7c(F)ccc(NS(=O)(=O)N8CC[C@@H](F)C8)c7C#N)cc6c5=O)cc4)CC3)C2)cc2c1C(=O)N([C@H]1CCC(=O)NC1=O)C2	35 to 70%

## Task Need Dmax, item Cn1c(=O)n(C2CCC(=O)NC2=O)c2cccc(N3CC(CN4CCN(c5ccc(-n6cnc7ccc(Oc8c(F)ccc(NS(=O)(=O)N9CC[C@@H](F)C9)c8C#N)cc7c6=O)cc5)CC4)C3)c21 (some centres unmarked)
## Result 35 to 70%

## Task Need Dmax, item COc1cc(N2CCN(CC3CCN(c4ccc(-n5cnc6ccc(Oc7c(F)ccc(NS(=O)(=O)N8CC[C@@H](F)C8)c7C#N)cc6c5=O)cn4)CC3)CC2)cc2c1C(=O)N(C1CCC(=O)NC1=O)C2=O (some centres unmarked)
## Result ≤ 35%

## Task Need Dmax, item N#Cc1c(NS(=O)(=O)N2CC[C@@H](F)C2)ccc(F)c1Oc1ccc2ncn(-c3cnc(N4CC5(CN(CC6CCN(c7cccc8c7C(=O)N(C7CCC(=O)NC7=O)C8=O)CC6)C5)C4)nc3)c(=O)c2c1 (some centres unmarked)
## Result ≤ 35%

## Task Need Dmax, item Cc1cc(N2CC(CN3CCN(c4ccc(-n5cnc6ccc(Oc7c(F)ccc(NS(=O)(=O)N8CC[C@@H](F)C8)c7C#N)cc6c5=O)cc4)CC3)C2)cc2c1C(=O)N([C@@H]1CCC(=O)NC1=O)C2
## Result 35 to 70%

----------
# SUBJECT_OF_TEST: B-RAF V600E (Homo sapiens, UniProt P15056, V600E)
# Construct: expressed in transfected cells; host or cells: T-Rex 293 cells (Invitrogen #R71007)
# PROCEDURE_SUMMARY: Target protein degradation, assay C: T-Rex 293 cells, HA-BRAF_V600E, 384 well format
# Type: cell-based
# CONDITION: T-REx-293, Assay C, T-Rex 293 HA-BRAF_V600E cells, 24 hours, Examples 83-269
Quick reference for Dmax among some compounds

COMPOUND	Dmax
N#Cc1c(NS(=O)(=O)N2CC[C@@H](F)C2)ccc(F)c1Oc1ccc2ncn(-c3ccc(N4CCN(CC5CCN(c6ccc(N7CCC(=O)NC7=O)c(F)c6)CC5)CC4)nc3)c(=O)c2c1	35 to 70%
N#Cc1c(NS(=O)(=O)N2CC[C@@H](F)C2)ccc(F)c1Oc1ccc2ncn(-c3ccc(N4CCN(CC5CCN(c6ccc7c(c6)CN(C6CCC(=O)NC6=O)C7=O)CC5)CC4)nn3)c(=O)c2c1 (stereo partly drawn)	≤ 35%
N#Cc1c(NS(=O)(=O)N2CC[C@@H](F)C2)ccc(F)c1Oc1ccc2ncn(-c3ccn(C4CC5(C4)CN(CC4CCN(c6ccc7c(c6)CN(C6CCC(=O)NC6=O)C7=O)CC4)C5)n3)c(=O)c2c1 (stereo partly drawn)	35 to 70%
N#Cc1c(NS(=O)(=O)N2CC[C@@H](F)C2)ccc(F)c1Oc1ccc2ncn(-c3ccc(N4CCC(CCN5CCN(c6ccc7c(c6)C(=O)N(C6CCC(=O)NC6=O)C7=O)CC5)CC4)nc3)c(=O)c2c1 (stereo partly drawn)	35 to 70%
N#Cc1c(NS(=O)(=O)N2CC[C@@H](F)C2)ccc(F)c1Oc1ccc2ncn(-c3ccc(N4CCC(CN5CC(c6ccc7c(c6)CN([C@H]6CCC(=O)NC6=O)C7=O)C5)CC4)cc3)c(=O)c2c1	35 to 70%
N#Cc1c(NS(=O)(=O)N2CC[C@@H](F)C2)ccc(F)c1Oc1ccc2ncn(-c3ccc(N4CC5(CN(CC6CCN(c7ccc8c(c7)C(=O)N(C7CCC(=O)NC7=O)C8=O)CC6)C5)C4)nc3)c(=O)c2c1 (stereo partly drawn)	≤ 35%
N#Cc1c(NS(=O)(=O)N2CC[C@H](F)C2)ccc(F)c1Oc1ccc2ncn(-c3ccc(N4CCN(CC5CN(c6ccc7c(c6)CN([C@@H]6CCC(=O)NC6=O)C7=O)C5)CC4)cc3)c(=O)c2c1	35 to 70%
N#Cc1c(NS(=O)(=O)N2CC[C@@H](F)C2)ccc(F)c1Oc1ccc2ncn(-c3ccc(N4CCN([C@H]5C[C@H](OC6CCN(c7ccc8c(c7)CN(C7CCC(=O)NC7=O)C8=O)CC6)C5)CC4)cc3)c(=O)c2c1 (stereo partly drawn)	35 to 70%

## Task Need Dmax, item N#Cc1c(NS(=O)(=O)N2CC[C@@H](F)C2)ccc(F)c1Oc1ccc2ncn(-c3cnc(C4(N5CCN(CC6CCN(c7ccc(C8CCC(=O)NC8=O)cc7F)CC6)CC5)CC4)nc3)c(=O)c2c1 (stereo partly drawn)
## Result 35 to 70%

From: patent US11957759B1
